- TEST DESCRIPTION: Pharmacokinetic parameters in vivo, monkey
- Parameters: species or system Cynomolgus monkeys
- TEST SETTINGS: cynomolgus monkey, plasma; Monkey, oral gavage 5 mg/kg solution vs IV 1 mg/kg
ENDPOINT: bioavailability (%)
Return type: number; implicit unit %.

What value of measured bioavailability is listed for Cn1nc(NS(C)(=O)=O)c2c(Cl)ccc(-n3c([C@H](Cc4cc(F)cc(F)c4)NC(=O)Cn4nc(C(F)F)c5c4C(F)(F)[C@@H]4C[C@H]54)nc4nc(OCCC(C)(F)F)ccc4c3=O)c21 (atropisomer, axis not shown; (P)) [Example 1] ?
7.92
